# experimental_target: T1, mouse MAdCAM expressed on cells (mouse, UniProt Q61826 22-405)
# T1 construct: whole, on cells
# T1 sequence (looked up): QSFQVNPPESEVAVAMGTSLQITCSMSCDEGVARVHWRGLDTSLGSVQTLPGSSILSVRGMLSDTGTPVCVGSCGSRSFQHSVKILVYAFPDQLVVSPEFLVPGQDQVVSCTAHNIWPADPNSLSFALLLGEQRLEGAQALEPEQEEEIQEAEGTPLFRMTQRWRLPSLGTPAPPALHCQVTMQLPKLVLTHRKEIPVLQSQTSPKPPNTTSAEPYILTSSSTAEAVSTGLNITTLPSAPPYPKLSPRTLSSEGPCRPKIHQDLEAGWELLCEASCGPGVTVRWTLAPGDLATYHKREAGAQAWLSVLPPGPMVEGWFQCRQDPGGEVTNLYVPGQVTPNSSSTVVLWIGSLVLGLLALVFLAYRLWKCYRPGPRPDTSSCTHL
# test_description: cell binding
measurement_type: binding result

• MAdCAM Antibody Table 2 clone 34 (antibody, V domains shown, IgG format) VH: QVQLVQSGAEVKKPGASVKVSCKASGYTFTGYYIHWVRQAPGQGLEWMGWMNPNSGNTGYAQKFQGRVTMTRDTSTSTVYMELSSLRSEDTAVYYCARDPGFLGYCSGGSCYDGWFDPWGQGTLVTVSS VL: DIQMTQSPSSLSASVGDRVTITCRASQSISSYLHWYQQKPGKAPKLLIYAASSLQSGVPSRFSGSGSGTDFTLTISSLQPEDFATYYCQQSYTAPYTFGQGTKLEIK = no binding
• MAdCAM Antibody Table 2 clone 53 (antibody, V domains shown, IgG format) VH: QVQLVQSGAEVKKPGASVKVSCKASGYTFTSYYMHWVRQAPGQGLEWMGWMNPNSGNTGYAQKFQGRVTMTRDTSTSTVYMELSSLRSEDTAVYYCAREGLGYCTNGVCWNYYGMDVWGQGTLVTVSS VL: DIQMTQSPSSLSASVGDRVTITCRASQGISSWLAWYQQKPGKAPKLLIYGASSLQSGVPSRFSGSGSGTDFTLTISSLQPEDFATYYCQQSYSTPYTFGQGTKVEIK = no binding
• MAdCAM Antibody Table 2 clone 81 (antibody, V domains shown, IgG format) VH: EVQLLESGGGLVKPGGSLRLSCAASGFAFSSHWMHWVRQAPGKGLEWVAGTSGSGESRDYADFVKGRFTISRDDSKNTLYLQMNSLKTEDTAVYYCARETYYYYYMDVWGKGTTVTVSS VL: DIQMTQSPSSLSASVGDRVTITCRASQGISNYLAWYQQKPGKAPKLLIYDAANLEGGVPSRFSGSGSGTDFTLTISSLQPEDFATYYCQQSDIFPPTFGQGTKVEIK = binds
• MAdCAM Antibody Table 2 clone 67 (antibody, V domains shown, IgG format) VH: QVQLVQSGAEVKKPGASVKVSCKASGYTFTGYYMHWVRQAPGQGLEWMGMIYPRDGSTSYAQKFQGRVTMTRDTSTSTVYMELSSLRSEDTAVYYCAMTGWGYGMDVWGKGTTVTVSS VL: DIQMTQSPSSLSASVGDRVTITCRASQGINNYLAWYQQKPGKAPKLLIYDASTLQSGVPSRFSGSGSGTDFTLTISSLQPEDFATYYCQQSYSAPPTFGQGTKLEIK = no binding
• MAdCAM Antibody Table 2 clone 10 (antibody, V domains shown, IgG format) VH: EVQLLESGGGLVQPGGSLRLSCAASGFMFGDYAMHWVRQAPGKGLEWVSAISGSGGSTYYADSVKGRFTISRDNSKNTLYLQMNSLRAEDTAVYYCAKDLVVAGIWYFDLWGRGTLVTVSS VL: DIQMTQSPSSLSASVGDRVTITCRASQGISNNLNWYQQKPGKAPKLLIYDASSLESGVPSRFSGSGSGTDFTLTISSLQPEDFATYYCQQTHSFPSTFGQGTKLEIK = binds
• MAdCAM Antibody Table 2 clone 33 (antibody, V domains shown, IgG format) VH: QVQLVQSGAEVKKPGASVKVSCKASGYTLTTWYMYWVRQAPGQGLEWMGWINPNRGATNYAQKFQGRVTMTRDTSTSTVYMELSSLRSEDTAVYYCAKGDLWGAMDVWGQGTTVTVSS VL: DIQMTQSPSSLSASVGDRVTITCRASDNIGSWLAWYQQKPGKAPKLLIYAASSLQSGVPSRFSGSGSGTDFTLTISSLQPEDFATYYCQQGYSTPPTFGQGTKVEIK = no binding
• MAdCAM Antibody Table 2 clone 66 (antibody, V domains shown, IgG format) VH: QVQLVQSGAEVKKPGASVKVSCKASGYTFTGHYMHWVRQAPGQGLEWMGIINPSGGSTSYAQKFQGRVTMTRDTSTSTVYMELSSLRSEDTAVYYCARDGAWFGEEYYYGMDVWGQGTTVTVSS VL: DIQMTQSPSSLSASVGDRVTITCRASQGISNWLAWYQQKPGKAPKLLIYDASNLETGVPSRFSGSGSGTDFTLTISSLQPEDFATYYCQQYYSFPLYTFGQGTKVEIK = no binding
• MAdCAM Antibody Table 2 clone 1 (antibody, V domains shown, IgG format) VH: EVQLLESGGGLVQPGGSLRLSCAASGFTFSSYGMHWVRQAPGKGLEWVAVISDDGSDKYYADSVKGRFTISRDNSKNTLYLQMNSLRAEDTAVYYCTTSKYYYYYGMDVWGQGTTVTVSS VL: DIQMTQSPSSLSASVGDRVTITCQASQDISKSLNWYQQKPGKAPKLLIYAASSLQSGVPSRFSGSGSGTDFTLTISSLQPEDFATYYCQQGYSTPLTFGGGTKVEIK = binds
• MAdCAM Antibody Table 2 clone 11 (antibody, V domains shown, IgG format) VH: EVQLLESGGGLVQPGGSLRLSCAASGFTFSDYYMNWVRQAPGKGLEWVSVIGESGGSTYYADSVKGRFTISRDNSKNTLYLQMNSLRAEDTAVYYCAADPVSRWPKHGGGDYWGQGTLVTVSS VL: DIQMTQSPSSLSASVGDRVTITCRASQGISSSLAWYQQKPGKAPKLLIYAASTLQSGVPSRFSGSGSGTDFTLTISSLQPEDFATYYCQQSYSTPWTFGQGTKVEIK = binds
• MAdCAM Antibody Table 2 clone 13 (antibody, V domains shown, IgG format) VH: QVQLVQSGAEVKKPGASVKVSCKASGYTFTTYYMHWVRQAPGQGLEWMGGFDPEDGETIYAQKFQGRVTMTRDTSTSTVYMELSSLRSEDTAVYYCARHAVAGAVGAGYYYYGMDVWGQGTMVTVSS VL: DIQMTQSPSSLSASVGDRVTITCRASESISNWLAWYQQKPGKAPKLLIYAASTLQSGVPSRFSGSGSGTDFTLTISSLQPEDFATYYCQQSYSVPFTFGPGTKVDIK = no binding
